# Tested on: influenza virus endonuclease (viral polymerase in viral cores)
# test_description: Viral endonuclease cleavage reaction of capped RNA substrates with viral cores
# Type: biochemical, Influenza A/PR/8 virus (H1N1)
# assay_conditions: absence of nucleotide triphosphates
reported_property: endonucleolytic cleavage by viral cores (in words)

substance	result
m^7 GpppGmAAUACU	neither cleaved
m^7 GpppGmAAUACUC	neither cleaved

====

# System: viral polymerase (viral cores)
# test_description: Elongation (priming of transcription) of capped RNA fragments by viral cores with NTPs
# Format: biochemical, Influenza A/PR/8 virus (H1N1)
# assay_conditions: with NTPs (ATP, CTP, GTP)
{m7Gppp} = cap: 7-methylguanosine joined 5'-5' by triphosphate; m = 2'-O-methyl; r = 2'-OH (RNA); {P} = phosphate
reported_property: elongation / priming of transcription by viral cores (in words)

substance	result
m^7 GpppGmAAUACUCAAp (GAAUACUCAA; sugars from the 5' end m1 r9, 5' {m7Gppp}, 3' {P}, backbone not given here) [ID; NO]	little elongation
m^7 GpppGmAAUACUCAAGp (GAAUACUCAAG; sugars from the 5' end m1 r10, 5' {m7Gppp}, 3' {P}, backbone not given here) [ID; NO]	little elongation

Values compiled from patent US5837852A.
